Molecular target: T1, EsCas13d, nuclease-dead (Eubacterium siraeum, UniProt B0MS50, R295A;H300A;R849A;H854A)
T1 sequence: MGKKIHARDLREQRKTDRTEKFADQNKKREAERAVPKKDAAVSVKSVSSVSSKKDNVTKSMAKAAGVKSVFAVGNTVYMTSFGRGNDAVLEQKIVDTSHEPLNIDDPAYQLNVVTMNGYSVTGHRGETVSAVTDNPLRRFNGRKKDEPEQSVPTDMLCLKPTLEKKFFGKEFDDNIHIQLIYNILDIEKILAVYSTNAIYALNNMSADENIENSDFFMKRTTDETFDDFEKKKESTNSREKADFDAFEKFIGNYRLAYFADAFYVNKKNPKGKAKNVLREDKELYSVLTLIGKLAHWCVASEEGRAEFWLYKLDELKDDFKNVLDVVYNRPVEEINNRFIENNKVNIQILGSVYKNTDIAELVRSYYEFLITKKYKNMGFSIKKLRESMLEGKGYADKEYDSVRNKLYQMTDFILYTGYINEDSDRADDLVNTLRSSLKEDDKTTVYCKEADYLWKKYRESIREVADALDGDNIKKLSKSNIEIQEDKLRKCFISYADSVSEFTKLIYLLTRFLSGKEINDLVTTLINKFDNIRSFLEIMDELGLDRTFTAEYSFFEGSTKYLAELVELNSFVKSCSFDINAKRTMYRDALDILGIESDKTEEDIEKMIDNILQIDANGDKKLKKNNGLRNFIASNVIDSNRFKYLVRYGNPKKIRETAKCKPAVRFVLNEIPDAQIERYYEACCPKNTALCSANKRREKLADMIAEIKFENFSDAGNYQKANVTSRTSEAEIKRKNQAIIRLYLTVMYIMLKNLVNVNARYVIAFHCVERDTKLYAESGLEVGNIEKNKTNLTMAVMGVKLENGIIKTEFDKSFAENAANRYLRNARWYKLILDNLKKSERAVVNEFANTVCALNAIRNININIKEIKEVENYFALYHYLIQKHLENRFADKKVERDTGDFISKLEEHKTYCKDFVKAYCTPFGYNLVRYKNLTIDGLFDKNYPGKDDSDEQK
Assay: crRNA (strand 1, pre-loaded); Mg2+; 40 mM Tris-HCl pH 7.5, 150 mM NaCl, 6 mM MgCl2, 1 mM DTT, 0.1% Tween-20, 0.2 mg/ml BSA; 25 C; 10 min per concentration, then washed
Conditions: tags: His6-TwinStrep-SUMO cleaved; N-terminal SNAP kept (SNAP-Surface 488); label: 3' end held by stalled T7 RNA polymerase
// reported Kd for each item listed
All answers are understood in nM, so give the number only.

// known answers, use as guide
Binder	Kd (nM)
target 1 MT 5'PFS CUA 3'PFS UAG (mixed) RNA 1: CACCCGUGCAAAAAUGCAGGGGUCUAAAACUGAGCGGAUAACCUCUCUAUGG RNA 2: GGGAAUGGAUCCACAUCUACGAAUUCCUACCAUAGAGAGGUUAUCCGCUCAUAGAGAUCGGAAGAGCACACGU	4.9
target 2 MT 5'PFS GCA 3'PFS UAA (mixed) RNA 1: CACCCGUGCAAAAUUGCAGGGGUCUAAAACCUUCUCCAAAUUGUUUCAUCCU RNA 2: GGGAAUGGAUCCACAUCUACGAAUUCGCAAGGAUGAAACAAUUUGGAGAAGUAAAGAUCGGAAGAGCACACGU	6.4
target 1 insC 3' of 17,insG 3' of 6 (mixed) RNA 1: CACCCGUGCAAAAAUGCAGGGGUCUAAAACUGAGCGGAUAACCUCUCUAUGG RNA 2: GGGAAUGGAUCCACAUCUACGAAUUCGUACCAUAGCAGAGGUUAUCCGGCUCACCGAGAUCGGAAGAGCACACGU	43
target 3 A18G,U22G (mixed) RNA 1: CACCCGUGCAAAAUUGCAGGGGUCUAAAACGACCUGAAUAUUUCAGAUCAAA RNA 2: GGGAAUGGAUCCACAUCUACGAAUUCGUUGUUGGUCUGAAAUAUUCAGGUCUGCAGAUCGGAAGAGCACACGU	64

Form field: reported Kd of target 1 insU 3' of 22 (mixed) RNA 1: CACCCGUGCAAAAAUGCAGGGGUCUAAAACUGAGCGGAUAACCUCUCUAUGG RNA 2: GGGAAUGGAUCCACAUCUACGAAUUCGUACUCAUAGAGAGGUUAUCCGCUCACCGAGAUCGGAAGAGCACACGU
38

Please look up its Kd: target 3 insU 3' of 5,insC 3' of 4 (mixed) RNA 1: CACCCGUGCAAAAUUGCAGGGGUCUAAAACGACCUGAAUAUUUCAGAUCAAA RNA 2: GGGAAUGGAUCCACAUCUACGAAUUCGUUUUUGAUCUGAAAUAUUCAUGCGUCUGCAGAUCGGAAGAGCACACGU
6.45

Returns the measured Kd for the input binder. Input: target 1 MT 5'PFS GGG 3'PFS AUG (mixed) RNA 1: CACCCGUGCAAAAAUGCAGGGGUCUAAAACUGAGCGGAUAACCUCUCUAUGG RNA 2: GGGAAUGGAUCCACAUCUACGAAUUCGGGCCAUAGAGAGGUUAUCCGCUCAAUGAGAUCGGAAGAGCACACGU
26.5

Give the measured Kd of target 1 MT 5'PFS UGC 3'PFS ACU (mixed) RNA 1: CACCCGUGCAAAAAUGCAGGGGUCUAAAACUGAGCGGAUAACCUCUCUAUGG RNA 2: GGGAAUGGAUCCACAUCUACGAAUUCUGCCCAUAGAGAGGUUAUCCGCUCAACUAGAUCGGAAGAGCACACGU .
10.8

# input binder: target 1 insA 3' of 22,insA 3' of 8 (mixed) RNA 1: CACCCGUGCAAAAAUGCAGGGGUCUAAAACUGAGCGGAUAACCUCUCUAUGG RNA 2: GGGAAUGGAUCCACAUCUACGAAUUCGUACACAUAGAGAGGUUAUACCGCUCACCGAGAUCGGAAGAGCACACGU ; wanted: its Kd
20.9

Any idea what its Kd is? The binder is target 1 MT 5'PFS GCC 3'PFS UGU (mixed) RNA 1: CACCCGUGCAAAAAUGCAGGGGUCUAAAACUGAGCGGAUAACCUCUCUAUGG RNA 2: GGGAAUGGAUCCACAUCUACGAAUUCGCCCCAUAGAGAGGUUAUCCGCUCAUGUAGAUCGGAAGAGCACACGU
20

So what does the record say about Kd for target 1 insU 3' of 4,insG 3' of 2 (mixed) RNA 1: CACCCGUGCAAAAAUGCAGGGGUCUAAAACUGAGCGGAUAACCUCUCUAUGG RNA 2: GGGAAUGGAUCCACAUCUACGAAUUCGUACCAUAGAGAGGUUAUCCGCUUCGACCGAGAUCGGAAGAGCACACGU ?
7.4

State the recorded Kd for this entry: target 1 insC 3' of 22,insC 3' of 9 (mixed) RNA 1: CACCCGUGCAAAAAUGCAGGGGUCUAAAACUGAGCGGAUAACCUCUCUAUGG RNA 2: GGGAAUGGAUCCACAUCUACGAAUUCGUACCCAUAGAGAGGUUACUCCGCUCACCGAGAUCGGAAGAGCACACGU
50

Record request: Kd value, item target 1 insG 3' of 22,insU 3' of 7 (mixed) RNA 1: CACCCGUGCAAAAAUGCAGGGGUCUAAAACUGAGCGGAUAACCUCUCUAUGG RNA 2: GGGAAUGGAUCCACAUCUACGAAUUCGUACGCAUAGAGAGGUUAUCUCGCUCACCGAGAUCGGAAGAGCACACGU
26.5

Could you share which Kd value was measured for target 1 MT 5'PFS UCG 3'PFS UUC (mixed) RNA 1: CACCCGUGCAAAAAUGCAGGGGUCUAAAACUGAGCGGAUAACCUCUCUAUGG RNA 2: GGGAAUGGAUCCACAUCUACGAAUUCUCGCCAUAGAGAGGUUAUCCGCUCAUUCAGAUCGGAAGAGCACACGU ?
37
